assay: 1-Octanol/water partition coefficient, shake-flask; conditions: pH 8, 0.1 mM bile salt
ASSAY ENDPOINT: LogPA− (1-octanol-water partition coefficient, ionized species)

COMPOUND: C[C@H](CCC(=O)O)[C@H]1CC[C@H]2[C@@H]3[C@H](O)C[C@@H]4C[C@H](O)CC[C@]4(C)[C@H]3CC[C@]12C [CDCA, chenodeoxycholic acid]
ASSAY RESULT: 2.2
//
COMPOUND: CC[C@H]1[C@@H](O)C2C3CCC(C(C)CCOS(=O)(=O)[O-])[C@@]3(C)CCC2[C@@]2(C)CC[C@@H](O)C[C@@H]12.[Na+] (stereo partly shown) [INT-1103]
ASSAY RESULT: 2.0

(a) CC[C@H]1[C@@H](O)[C@@H]2[C@H](CC[C@]3(C)[C@@H]([C@H](C)CCC(=O)O)CC[C@@H]23)[C@@]2(C)CC[C@@H](O)C[C@@H]12 [INT-747]
(b) C[C@H](CCC(=O)NCCS(=O)(=O)O)[C@H]1CC[C@H]2[C@@H]3[C@H](O)C[C@@H]4C[C@H](O)CC[C@]4(C)[C@H]3CC[C@]12C [TCDCA]
q: Of a and b , whose reported LogPA− (1-octanol-water partition coefficient, ionized species) is the larger number? Indicate your choice by writing its label.
a: a
